The reported numbers originate from paper PMC6817756.

Catalogue of binders with associated Kd
Target: MYC bHLH peptide (MYC/MYC) (UniProt P01106 365-454)
Sequence (P01106 365-454): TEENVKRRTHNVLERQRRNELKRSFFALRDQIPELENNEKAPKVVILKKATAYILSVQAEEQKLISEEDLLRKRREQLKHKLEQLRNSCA
Experiment: fluorescence polarization; table heading: affinity; FP: 10 mM Tris-HCl, 50 mM KCl, 1 mM EDTA, 5 mM MgCl2, 10 mM DTT, 2 nM DNA stock mixed 20 ul + 20 ul protein, 30 min, pH and temperature not stated; pulldown: 50 mM Tris-HCl pH 7.5, 5% glycerol, 1.5 mM MgCl2, 150 mM NaCl, 1 mM DTT, IGEPAL, 4 C
Details: chain copies: 2; label: 5'-FAM; blunt
Measured Metric: Kd

In [3]: df
Out[3]:
                                     binder  reported_measurement
0  VEGFA-2 E box (dsDNA) DNA 1: CCCCCACCACGCGGTGCCTGA DNA 2: TCAGGCACCGCGTGGTGGGGG                111 nM
1  VEGFA-1 E box (dsDNA) DNA 1: CCCCCACCACCTGGTGCCTGA DNA 2: TCAGGCACCAGGTGGTGGGGG                140 nM
